Attribution: paper PMC9045277

Assay target: ClpP (Staphylococcus aureus, UniProt Q2G036);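 also: ClpP peptidase activity measured as fluorescence (ex 360 nm, em 465 nm) from cleavage of Suc-LY-AMC substrate at 100 µM, 30 min at 32°C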
Construct: pET28a-clpP, purified from E. coli BL21(DE3)
Sequence (Q2G036 whole entry): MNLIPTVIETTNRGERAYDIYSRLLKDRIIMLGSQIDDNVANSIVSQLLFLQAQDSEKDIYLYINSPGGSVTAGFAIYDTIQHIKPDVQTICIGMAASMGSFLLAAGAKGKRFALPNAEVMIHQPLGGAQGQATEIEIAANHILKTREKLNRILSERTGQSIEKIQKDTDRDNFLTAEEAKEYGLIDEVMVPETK
Assay details: biochemical
Conditions: read-out: Relative inhibition rate (%)
Give inhibition at 64 µg/mL for every item shown.
Answer format: numeric, % implied, no suffix.

Prompt: Identify measured inhibition at 64 µg/mL corresponding to CC1=C[C@H](O)CC(C)(C)[C@H]1/C=C/C(C)=C/C=C/C(C)=C/C=C/C=C(C)/C=C/C=C(C)/C=C/C1=C(C)C[C@@H](O)CC1(C)C [Lutein]
Completion: 1.4

Prompt: Answer with the recorded inhibition at 64 µg/mL of COc1cc(O)c2c(c1)O[C@H](c1ccc(O)cc1)CC2=O [Sakuranetin] only.
Completion: 3.9

Prompt: State, in one line, measured inhibition at 64 µg/mL of COc1ccc(-c2cc(=O)c3c(O)cc(O[C@@H]4O[C@H](CO[C@@H]5O[C@@H](C)[C@H](O)[C@@H](O)[C@H]5O)[C@@H](O)[C@H](O)[C@H]4O)cc3o2)cc1O [Diosmin]
Completion: 31.7

Prompt: Indicate its recorded inhibition at 64 µg/mL; the compound in question is O=c1cc(-c2ccc(O)cc2)oc2cc(O)cc(O)c12 [Apigenin]
Completion: 13.6

Prompt: Indicate its recorded inhibition at 64 µg/mL; the compound in question is C[C@@H]1O[C@@H](O[C@H]2[C@H](Oc3cc(O)c(C(=O)CCc4ccc(O)cc4)c(O)c3)O[C@H](CO)[C@@H](O)[C@@H]2O)[C@H](O)[C@H](O)[C@H]1O [Naringin dihydrochalcone]
Completion: 20.6

Prompt: For the compound CC(C)=CCc1c(-c2ccc(O)cc2O)oc2c([C@H]3C=C(C)C[C@@H](c4ccc(O)cc4O)[C@@H]3C(=O)c3ccc(O)cc3O)c(O)cc(O)c2c1=O [kuwanonG] , give its measured inhibition at 64 µg/mL value.
Completion: 21.2
